Provenance of the data: paper PMC10250233

assayed_target: CST (CTC1-STN1-TEN1) (human, UniProt Q2NKJ3;Q9H668;Q86WV5 1-1217;1-368;1-123)
Sequence (Q2NKJ3 whole entry, chain 1 of 3): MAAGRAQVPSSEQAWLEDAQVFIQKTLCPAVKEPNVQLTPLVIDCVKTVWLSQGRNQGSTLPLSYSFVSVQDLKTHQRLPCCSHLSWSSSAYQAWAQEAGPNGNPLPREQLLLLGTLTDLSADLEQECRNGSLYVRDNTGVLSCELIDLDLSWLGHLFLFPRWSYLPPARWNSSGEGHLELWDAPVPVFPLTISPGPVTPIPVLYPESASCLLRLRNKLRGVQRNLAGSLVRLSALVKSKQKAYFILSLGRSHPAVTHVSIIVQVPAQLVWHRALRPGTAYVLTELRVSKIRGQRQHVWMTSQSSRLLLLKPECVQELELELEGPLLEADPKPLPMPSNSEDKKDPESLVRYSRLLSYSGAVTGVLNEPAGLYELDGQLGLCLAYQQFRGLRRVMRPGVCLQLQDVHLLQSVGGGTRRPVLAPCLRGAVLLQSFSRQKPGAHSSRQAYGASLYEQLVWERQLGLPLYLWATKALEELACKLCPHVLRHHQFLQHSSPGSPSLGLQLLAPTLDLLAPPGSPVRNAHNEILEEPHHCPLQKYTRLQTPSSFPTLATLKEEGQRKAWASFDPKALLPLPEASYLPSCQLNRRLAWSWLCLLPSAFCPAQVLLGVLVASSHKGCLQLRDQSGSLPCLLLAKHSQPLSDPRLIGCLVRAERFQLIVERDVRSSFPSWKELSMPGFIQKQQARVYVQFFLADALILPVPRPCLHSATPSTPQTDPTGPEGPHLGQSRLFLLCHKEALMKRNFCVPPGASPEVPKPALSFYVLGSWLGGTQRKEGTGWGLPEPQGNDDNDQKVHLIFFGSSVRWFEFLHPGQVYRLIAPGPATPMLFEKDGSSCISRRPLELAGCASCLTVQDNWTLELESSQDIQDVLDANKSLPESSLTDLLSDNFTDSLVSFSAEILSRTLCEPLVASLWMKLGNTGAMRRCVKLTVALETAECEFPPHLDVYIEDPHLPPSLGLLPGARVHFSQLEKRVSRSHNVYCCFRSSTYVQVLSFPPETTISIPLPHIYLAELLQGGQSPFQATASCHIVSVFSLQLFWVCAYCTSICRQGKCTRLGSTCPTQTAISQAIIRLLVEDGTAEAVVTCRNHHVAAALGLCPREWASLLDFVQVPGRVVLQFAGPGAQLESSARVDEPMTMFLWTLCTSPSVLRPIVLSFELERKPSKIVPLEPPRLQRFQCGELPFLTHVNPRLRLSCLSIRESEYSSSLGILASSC
Sequence (Q9H668 whole entry, chain 2 of 3): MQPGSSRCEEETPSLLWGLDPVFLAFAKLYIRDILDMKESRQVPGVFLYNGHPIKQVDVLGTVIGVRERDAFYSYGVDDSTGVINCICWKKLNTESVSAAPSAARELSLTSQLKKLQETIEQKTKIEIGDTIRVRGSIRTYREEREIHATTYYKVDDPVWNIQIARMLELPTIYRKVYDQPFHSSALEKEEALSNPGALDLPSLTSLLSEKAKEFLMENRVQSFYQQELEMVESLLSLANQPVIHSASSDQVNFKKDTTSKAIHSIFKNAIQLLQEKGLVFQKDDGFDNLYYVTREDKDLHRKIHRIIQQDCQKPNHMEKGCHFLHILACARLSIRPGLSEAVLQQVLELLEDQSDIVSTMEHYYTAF
Sequence (Q86WV5 whole entry, chain 3 of 3): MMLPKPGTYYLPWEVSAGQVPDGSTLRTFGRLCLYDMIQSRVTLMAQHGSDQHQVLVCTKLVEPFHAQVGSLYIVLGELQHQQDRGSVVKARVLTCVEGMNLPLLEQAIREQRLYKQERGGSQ
assay: fluorescence anisotropy; 200 mM NaCl; FA: 200 mM NaCl, KCl or LiCl, 20 mM HEPES pH 7.4, 1 mM DTT, 22-25 C, 375 or 750 pM oligo, Kd,app +/- SEM; EMSA: 20 mM HEPES pH 7.4, 200 mM KCl, 1 nM 32P oligo
conditions_used: protein: recombinant; tags: 2xFLAG N-term on CTC1; 6xHis N-term on STN1 and TEN1; copies: 1;1;1; label: 5' fluorescein; linear
pKd: −log10 of the molar value.
measurement_label: pKd

[[record]]
binder = "CCCTAACCCTAACCCTAACCCT (ssDNA) [C22]"
measurement_label = "pKd"
assay_value = 6.74

